A compilation of IC50 values for Autotaxin (Homo sapiens, UniProt Q13822) from the published literature.

{"COMPOUND": "O=C(O)CC1CCCCN1Cc1ccc2c(C(F)(F)F)c(O[C@H]3CC[C@@H](C(F)(F)F)CC3)ccc2c1 (relative stereo)", "ASSAYED_TARGET": "Autotaxin (Homo sapiens, UniProt Q13822)", "IC50": "≤ 250 nM"}
{"COMPOUND": "O=C(c1ccc(NC2Cc3ccc(Cl)cc3C2)nc1)N1CCC12COC2 (centres unmarked)", "ASSAYED_TARGET": "Autotaxin (Homo sapiens, UniProt Q13822)", "IC50": "100 to 1000 nM"}
{"COMPOUND": "O=C1OCC2Cc3c(n(Cc4ccc(F)cc4)c4ccccc34)CN12 (centres unmarked)", "ASSAYED_TARGET": "Autotaxin (Homo sapiens, UniProt Q13822)", "IC50": "< 500 nM"}
{"COMPOUND": "O=C(O)C12CC3CC(C1)N(Cc1ccc4c(C(F)(F)F)c(O[C@H]5CC[C@@H](C(F)(F)F)CC5)ccc4c1)C(C3)C2", "ASSAYED_TARGET": "Autotaxin (Homo sapiens, UniProt Q13822)", "IC50": "≤ 100 nM"}
{"COMPOUND": "CCCn1cc(-n2c(C#N)c(Sc3cccc(C(=O)O)c3)c3ccc(Cl)cc32)cn1", "ASSAYED_TARGET": "Autotaxin (Homo sapiens, UniProt Q13822)", "IC50": "< 500 nM"}
{"COMPOUND": "CCOCC1CN(Cc2ccc(C#N)cc2)C(=O)c2cc(-c3ccc(Cl)cc3)nn21 (centres unmarked)", "ASSAYED_TARGET": "Autotaxin (Homo sapiens, UniProt Q13822)", "IC50": "100 to 1000 nM"}
{"COMPOUND": "CCCCCC1CN(CC(=O)N2CCCCC2C(=O)N2CCCCC2)C(=O)c2cc(-c3ccc(Cl)cc3)nn21 (centres unmarked)", "ASSAYED_TARGET": "Autotaxin (Homo sapiens, UniProt Q13822)", "IC50": "10 to 100 nM"}
{"COMPOUND": "Cc1c(Sc2cccc(C(=O)O)c2)c2ccc(Cl)c(F)c2n1CC(=O)N1CCC(O)C1 (centres unmarked)", "ASSAYED_TARGET": "Autotaxin (Homo sapiens, UniProt Q13822)", "IC50": "≤ 500 nM"}
